Source listed as patent US20230339991A1.

- Method Notes: Blood-brain barrier experiment, brain and plasma concentrations after IV dosing
- Assay type: in vivo, CD-1 mice
- Measurement Parameters: CD-1, mouse, brain/plasma, iv, 1 mg/kg, 2 h, single animals, read-out: Ratio (Brain/Plasma)
Assay Endpoint: Kp at 2 h
Answer with a bare number; do not write a unit.

INPUT: Using the record for O=[N+]([O-])c1ccc([C@H](OP(=O)(N2CC2)N2CC2)C(F)(F)F)c2ccccc12 , report its Kp at 2 h.
OUTPUT: 1.38

INPUT: Using the record for O=[N+]([O-])c1ccc([C@@H](OP(=O)(N2CC2)N2CC2)C(F)(F)F)c2ccccc12 (single isomer, unassigned) , report its Kp at 2 h.
OUTPUT: 1.35
